meta.source: ChEMBL document CHEMBL1201862

Entries and their measured GI50 follow.
Tested on: NCI-H522
Experiment: NCI tumour cell line growth inhibition, 48 h
Activity calls are given as the source filed them. Rule as the data show it: active = GI50 up to about 1.1 µM and inactive = higher.

[
  {
    "compound": "O=C(Nc1ccc(Cl)cc1Cl)c1c/c(=N\\O)c2ccc(O)cc2o1",
    "GI50": "> 100 µM (inactive)"
  },
  {
    "compound": "COc1ccc(OC)c(C2CCCc3c2cnc2nc(N)nc(N)c32)c1 (stereo unspecified)",
    "GI50": "< 0.0392 µM (active)"
  },
  {
    "compound": "COc1cc2ccc1-c1cc(ccc1O)CC1c3cc4c(cc3CCN1C)Oc1c(OC)cc3c(c1O4)C(C2)N(C)CC3 (stereo unspecified)",
    "GI50": "1.75 µM (inactive)"
  }
]

# value of GI50, NCI-H522, item CCCCCCCCCC(=O)OCC1(CO)C/C(=C/CC(C(C)C)C(C)C)C(=O)O1 (stereo unspecified) = 19.4 µM (inactive)

---

Tested on: T47D
Experiment: NCI tumour cell line growth inhibition, 48 h
Active and inactive are the calls of the source. Cut-off read from the data, not from the text of the source: active = GI50 up to about 1.1 µM and inactive = higher.
Thanks in advance; please answer with one of these: TRUE = active, FALSE = inactive

A selection of reference data follows.
[
  {
    "molecule": "C=CCOC1=C(OC(C)=O)C(=O)OC1C1COC(C)(C)O1 (stereo not given)",
    "class_label": "FALSE"
  },
  {
    "molecule": "CN(C)c1ccc(C=C2C(=O)NC(=S)NC2=O)c2ccccc12",
    "class_label": "FALSE"
  },
  {
    "molecule": "COc1cc2cc(C(=O)N3CC(CCl)c4c3cc(NC(=O)OCc3ccc([N+](=O)[O-])cc3)c3ccccc43)[nH]c2c(OC)c1OC (stereo not given)",
    "class_label": "FALSE"
  },
  {
    "molecule": "Brc1ccc(/N=N/c2ccc3ccccc3n2)cc1",
    "class_label": "FALSE"
  }
]

# outcome recorded in this test, key = `Cn1cnc(N2CCCC2)c(C#N)c1=S`
FALSE

Please state the recorded outcome for this molecule: COc1cc(C(=O)C2C(=O)c3ccccc3C2C2(O)c3ccccc3CC2C(O)c2cc(OC)c(OC)c(OC)c2)cc(OC)c1OC (stereo not given)
FALSE

Short answer needed: outcome of this test for `COc1cc2c(cc1NC(=O)c1ccccc1)c1c(n2S(=O)(=O)c2ccccc2)CCN(S(=O)(=O)c2ccccc2)C1` ?
FALSE

Would you mind telling me which call this test gave `O=[N+]([O-])c1ccc2sc(/C=N/c3ccccn3)cc2c1` ?
FALSE

Hi, sorry to bother you, what did the test record for Cc1cn(C2CC(Br)C(COC(c3ccccc3)(c3ccccc3)c3ccccc3)O2)c(=O)[nH]c1=O (stereo not given) ?
FALSE

---

Test system: UACC-257
Assay: NCI tumour cell line growth inhibition, 48 h
Activity calls are given as the source filed them. Cut-off read from the data, not from the text of the source: active = GI50 up to about 1.1 µM and inactive = higher.
Measured GI50 accompanies every entry in the list below.

[
  {
    "compound": "CN(C)CCNC(=O)Cn1ccc(=O)c2c([N+](=O)[O-])cccc21",
    "GI50": "> 100 µM (inactive)"
  },
  {
    "compound": "Cc1cn(C2CC(O)C(COC(=O)NCCC(F)(F)C(F)(F)C(F)(F)C(F)(F)F)O2)c(=O)[nH]c1=O (stereo not given)",
    "GI50": "> 100 µM (inactive)"
  },
  {
    "compound": "Cc1cc(O)c(C(O)c2ccccn2)cc1O (stereo not given)",
    "GI50": "> 10 µM (inactive)"
  },
  {
    "compound": "C=CCC(C)C12CCNC(Cc3ccc(O)cc31)C2C (stereo not given)",
    "GI50": "66.2 µM (inactive)"
  }
]

Value of GI50 reported for the compound `O=C(Cn1c(=O)oc2ccc(C(=O)c3ccccc3Cl)cc21)c1ccc([N+](=O)[O-])cc1` is 31.1 µM (inactive)

GET /value?item= C=CCC1C2CCC(O[Si](C(C)C)(C(C)C)C(C)C)(C(C(=O)OC)C2)C1O (stereo not given) &field=GI50 returns 38.3 µM (inactive)

Recorded result, `CCN(CC)CCSc1c2cc(OC)ccc2nc2ccc(OC)cc12` , GI50: 4.35 µM (inactive)

Recorded result, Nc1nc(SCCC/C=C/B(O)O)nc2c1ncn2C1OC(CO)C(O)C1O (stereo not given) , GI50: > 243 µM (inactive)

Just so you know, measured GI50 for COc1ccc(/C(=N/O)C(c2ccc(OC)cc2)C2C(=O)Oc3ccccc32)cc1 (stereo not given) came out at 34.7 µM (inactive)

// sample `[O-][Cl+3]([O-])([O-])O.c1ccc(/N=c2\snc(-c3ccccc3)s2)cc1` , its GI50 was > 100 µM (inactive)

---

Test system: OVCAR-5
Assay: NCI tumour cell line growth inhibition, 48 h
Active and inactive are the calls of the source. No stated cut-off is given here; in the data, active = GI50 up to about 1.1 µM and inactive = higher.
Please state which outcome applies, choosing from active, inactive

A selection of reference data follows.
[
  {
    "compound": "Nc1n[n+](-c2ccccc2)no1",
    "class_label": "inactive"
  },
  {
    "compound": "O=C1C(c2ccccc2)=[N+]([O-])c2cc([N+](=O)[O-])ccc21",
    "class_label": "inactive"
  },
  {
    "compound": "OC1C2CCCCN2C[C@@H](O)[C@H]1O (some centres not stated)",
    "class_label": "inactive"
  },
  {
    "compound": "O=C(Cc1ccc(O)c(O)c1)NCc1c[nH]c2ccccc12",
    "class_label": "inactive"
  },
  {
    "compound": "Cc1nc2ccccc2nc1CC(=O)C(=O)Nc1ccc(Cl)cc1Cl",
    "class_label": "inactive"
  }
]

Hey, what did the test say about O=C1OC(=O)C2C3C=CC(C12)C1C2C=CC2C31 (configuration not stated) ?
inactive

Assay outcome for `CN(CCN(C)Cc1ccc(Cl)c(Cl)c1)CCN1CCCC1` : what was it?
inactive

How did this test come out for `O=C1NC(=S)NC(=O)C1=Cc1ccc[nH]1` ?
inactive

Hi team, can someone confirm the assay call for `O=c1cc(NCC2CCCCC2)[nH]c(=O)[nH]1` ?
inactive

Any idea what this test logged for O=C(Nc1ccc([N+](=O)[O-])cc1[N+](=O)[O-])C(=O)C(C(=O)c1ccc(Cl)c(Cl)c1)C1OC(=O)c2ccccc21 (configuration not stated) ?
inactive

---

System: SK-MEL-2
Test: NCI tumour cell line growth inhibition, 48 h
The source made the active and inactive calls. Rule as the data show it: active = GI50 up to about 1.1 µM and inactive = higher.
measurement_kind: GI50

Examples from the recorded data:
[
  {
    "compound": "CC(=O)Nc1[nH]n(C)c(=O)c1-c1nnc(C)s1",
    "GI50": "> 100 µM (inactive)"
  },
  {
    "compound": "COC(=O)c1c(O)ccc(O)c1C(C(C)=O)C(C)=O",
    "GI50": "> 100 µM (inactive)"
  },
  {
    "compound": "COc1ccc(-c2c(C#N)c(-c3ccc(C)cc3)n(NS(=O)(=O)c3ccc(C)cc3)c(=O)c2C#N)cc1",
    "GI50": "58.9 µM (inactive)"
  }
]

Briefly, GI50 measured for Cc1c(N)nc(C(CC(N)=O)NCC(N)C(N)=O)nc1C(=O)NC(C(=O)NC(C)C(O)C(C)C(=O)NC(C(=O)NCCc1nc(-c2nc(C(=O)NCCCNCCCCN)cs2)cs1)C(C)O)C(OC1OC(CO)C(O)C(O)C1OC1OC(CO)C(O)C(OC(N)=O)C1O)c1c[nH]cn1 (stereo not drawn) : > 10 µM (inactive)

Sample `CCCC(=O)Oc1cc(OC(=O)CCC)c2c(C)cc(=O)oc2c1` ; GI50 observed: > 100 µM (inactive)

Short answer for `N#CCc1nc(-c2cc3ccccc3oc2=O)cs1` : GI50 was 25.4 µM (inactive)

GI50 reported for this compound `COc1cc(/C=C2\C[C@H]3[C@@H]4CC=C5C[C@@H](O)CC[C@]5(C)[C@H]4CC[C@]3(C)[C@H]2O)cc(OC)c1OC` : 12.7 µM (inactive)

Briefly, GI50 measured for `O=C1c2c(ccc3c2CCC3)CC12Cc1cc3c(cc1C2)CCC3` : > 100 µM (inactive)

---

This listing pairs molecules with measured GI50.
Tested on: HT-29
Assay: NCI tumour cell line growth inhibition, 48 h
The source made the active and inactive calls. No stated cut-off is given here; in the data, active = GI50 up to about 1.1 µM and inactive = higher.

[
  {
    "molecule": "Cc1cc(N(CCC#N)CCC#N)ccc1/C(Sc1ccccc1)=C(\\NC(=O)/C=C/c1ccccc1)C(=O)Sc1ccccc1",
    "GI50": "2.91 µM (inactive)"
  }
]

Param item: `Nc1ccc(-c2ncc3cc(-c4cccc(-c5cc6cnc(-c7ccc(N)cc7)nc6c6ccccc56)c4)c4ccccc4c3n2)cc1` ; param system: HT-29; output GI50: > 100 µM (inactive)

Here COc1cc(OC)c([C@@H]2OC(=O)C3C2C(=O)O[C@H]3c2cc(OC)c(OC)cc2OC)cc1OC (stereo not given in full) was tested on HT-29, and its GI50 came to > 100 µM (inactive)

Record `O=S1(=O)OCCOS(=O)(=O)C1Cl` / HT-29, GI50 recorded as > 100 µM (inactive)

The molecule `COc1cc2cccc(/N=C\c3cccc(OC)c3OC(C)C)c2cc1OC` , when measured on HT-29, yielded GI50 of 23.2 µM (inactive)
